# SUBJECT OF TEST: T1, TraI36 (F TraI relaxase domain) (Escherichia coli F plasmid (F factor), UniProt P14565 1-330)
# T1 sequence: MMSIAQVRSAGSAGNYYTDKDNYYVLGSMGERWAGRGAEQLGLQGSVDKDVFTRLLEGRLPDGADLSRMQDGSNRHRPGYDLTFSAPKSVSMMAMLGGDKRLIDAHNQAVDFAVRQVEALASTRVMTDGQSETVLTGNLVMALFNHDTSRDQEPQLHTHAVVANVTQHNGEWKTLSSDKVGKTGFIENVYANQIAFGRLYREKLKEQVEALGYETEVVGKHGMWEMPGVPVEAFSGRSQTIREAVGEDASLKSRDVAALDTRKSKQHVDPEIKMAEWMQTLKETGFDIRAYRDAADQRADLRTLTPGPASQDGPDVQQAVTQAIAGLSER
# ASSAY PROCEDURE: fluorescence anisotropy and intensity
Known Kd of a selection of binders
Number only, in nM; omit the unit.

Quick one: Kd for GCAAAAACTTGTTTTTGCGTGGGGTGTGGT (structured_DNA) [WT Hairpin] ?
6.8

Okay, now this binder:
Quick one: Kd for CGAAAAACTTGTTTTTGCGTGGGGTGTGGT (structured_DNA) [G167'C/C166'G Hairpin] ?
12
